Hello, the source for this data is patent US20240317847A1, in case you need it.

Molecular target: T1, human IL-11 (human, UniProt P20809 22-199)
T1 sequence: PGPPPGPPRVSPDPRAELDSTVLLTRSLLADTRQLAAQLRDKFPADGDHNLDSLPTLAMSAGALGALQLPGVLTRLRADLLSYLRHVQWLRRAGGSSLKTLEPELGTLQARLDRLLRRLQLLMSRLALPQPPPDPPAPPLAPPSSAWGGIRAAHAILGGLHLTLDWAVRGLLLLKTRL
Assay: cell-based or functional assay
Quick reference: RGA IC50 of the listed items.
Property: RGA IC50 (nM)

>>> quantitative_result("TPP-29389 (antibody, human IgG1, V domains shown) VH: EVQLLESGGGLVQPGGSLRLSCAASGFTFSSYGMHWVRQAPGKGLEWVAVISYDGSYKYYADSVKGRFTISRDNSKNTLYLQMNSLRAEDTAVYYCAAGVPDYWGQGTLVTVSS VL: QSVLTQPPSASGTPGQRVTISCSGSSSNIGSYYDVHWYQQLPGTAPKLLIYSNEERPSGVPDRFSGSKSGTSASLAISGLRSEDEADYYCAAWDPSLYGPVFGGGTKLTVL")
0.84
>>> quantitative_result("TPP-29382 (antibody, human IgG1, V domains shown) VH: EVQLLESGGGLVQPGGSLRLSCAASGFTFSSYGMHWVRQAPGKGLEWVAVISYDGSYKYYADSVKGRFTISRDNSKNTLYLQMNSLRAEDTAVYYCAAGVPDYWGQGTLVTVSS VL: QSVLTQPPSASGTPGQRVTISCSGSSSNIGSDLDVHWYQQLPGTAPKLLIYSNNERPSGVPDRFSGSKSGTSASLAISGLRSEDEADYYCAAWDFSLYGPVFGGGTKLTVL")
0.64
>>> quantitative_result("TPP-29393 (antibody, human IgG1, V domains shown) VH: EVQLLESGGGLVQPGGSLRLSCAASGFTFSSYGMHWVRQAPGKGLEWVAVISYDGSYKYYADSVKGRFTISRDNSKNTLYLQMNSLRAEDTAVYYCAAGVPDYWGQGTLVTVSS VL: QSVLTQPPSASGTPGQRVTISCSGSSSNIGSDLDVHWYQQLPGTAPKLLIYSNEERPSGVPDRFSGSKSGTSASLAISGLRSEDEADYYCAAWDDSLYGPVFGGGTKLTVL")
0.61
>>> quantitative_result("TPP-29381 (antibody, human IgG1, V domains shown) VH: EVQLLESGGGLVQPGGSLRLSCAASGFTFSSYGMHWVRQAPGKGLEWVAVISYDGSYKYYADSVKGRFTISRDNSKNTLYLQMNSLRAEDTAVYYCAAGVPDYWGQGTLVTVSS VL: QSVLTQPPSASGTPGQRVTISCSGSSSNIGSDYDVHWYQQLPGTAPKLLIYSNNERPSGVPDRFSGSKSGTSASLAISGLRSEDEADYYCSAWDSSLSGPVFGGGTKLTVL")
0.48
>>> quantitative_result("TPP-29404 (antibody, human IgG1, V domains shown) VH: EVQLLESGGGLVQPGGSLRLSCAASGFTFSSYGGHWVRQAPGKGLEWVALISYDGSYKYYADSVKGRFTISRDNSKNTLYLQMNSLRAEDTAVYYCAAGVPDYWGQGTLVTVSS VL: QSVLTQPPSASGTPGQRVTISCSGSSSNIGSYYDVHWYQQLPGTAPKLLIYSNNERPSGVPDRFSGSKSGTSASLAISGLRSEDEADYYCAAWDSSLSGPVFGGGTKLTVL")
0.72
